src = the supplement of paper PMC10338343

What pre-steady-state target cleavage rate was measured for each of the following?
test system: MILI (PIWIL2) piRISC loaded with Kctd7 piRNA (26 nt); assay: pre-steady-state target cleavage rate (min^-1); MIWI and MILI are mouse PIWI proteins and EfPiwi is from a freshwater sponge; tags in brackets are library labels; higher = faster piRNA-guided slicing of the target; details: guide: Kctd7 piRNA 5'p-UGUUAAUCUCUCAGAGAAGGUGACAG; auxiliary factor: 500 nM mouse GTSF1;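 also: 1 nM active piRISC with 0.1 nM target library at 33 °C single turnover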
Over roughly 3,700 sequences, “pre-steady-state target cleavage rate” has its median near 0.02; the highest 2% begin near 0.23. What follows is part of a selection rich in the highest values, with near analogues and random picks from the rest.
One number for each entry.

# example entries with known answers
[
  {
    "Residue String": "UAGUGUGUCACCAACUCUGAGAGAUUUUGA",
    "Test System": "MILI (PIWIL2) piRISC loaded with Kctd7 piRNA (26 nt)",
    "pre-steady-state target cleavage rate": 0.00551
  },
  {
    "Residue String": "UAGUGUGUCACCUUCUCAGAGACAUUAACA",
    "Test System": "MILI (PIWIL2) piRISC loaded with Kctd7 piRNA (26 nt)",
    "pre-steady-state target cleavage rate": 0.117
  },
  {
    "Residue String": "UAGUCUGUCACCUUCUCUGAGAGGAUUAACA",
    "Test System": "MILI (PIWIL2) piRISC loaded with Kctd7 piRNA (26 nt)",
    "pre-steady-state target cleavage rate": 0.174
  },
  {
    "Residue String": "UAGUGAGUCACCAUCUCUGACAGAUUAACA",
    "Test System": "MILI (PIWIL2) piRISC loaded with Kctd7 piRNA (26 nt)",
    "pre-steady-state target cleavage rate": 0.0409
  },
  {
    "Residue String": "UAGUGUCUCACCUUCUCUGAGAGAUUAUGA",
    "Test System": "MILI (PIWIL2) piRISC loaded with Kctd7 piRNA (26 nt)",
    "pre-steady-state target cleavage rate": 0.0163
  }
]

Lab note: next sequence to report on.
Report pre-steady-state target cleavage rate for `UAGUGUGUCAGCUUCUGUGAGAGAUUAACA` please.
0.129
